testedSystem: Rat α3β2 nAChR (Rattus norvegicus, UniProt P04757+P12390)
Construct: expressed in transfected cells; host or cells: Xenopus laevis oocytes, cRNA injected
Sequence (P04757 26-499 limits assumed): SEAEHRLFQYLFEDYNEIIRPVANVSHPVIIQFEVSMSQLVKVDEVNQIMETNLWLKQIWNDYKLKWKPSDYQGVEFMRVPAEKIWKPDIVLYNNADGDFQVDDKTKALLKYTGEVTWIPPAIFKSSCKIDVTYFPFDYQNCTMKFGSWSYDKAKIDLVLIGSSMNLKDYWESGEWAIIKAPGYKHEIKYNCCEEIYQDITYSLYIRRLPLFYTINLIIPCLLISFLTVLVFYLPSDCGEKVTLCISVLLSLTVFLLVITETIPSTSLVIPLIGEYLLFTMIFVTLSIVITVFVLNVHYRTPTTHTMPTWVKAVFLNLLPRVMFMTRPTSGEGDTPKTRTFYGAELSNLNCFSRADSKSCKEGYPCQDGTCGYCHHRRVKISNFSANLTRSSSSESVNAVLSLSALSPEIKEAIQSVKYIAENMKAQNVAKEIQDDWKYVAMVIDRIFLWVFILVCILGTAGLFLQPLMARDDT
Sequence (P12390 25-500 limits assumed): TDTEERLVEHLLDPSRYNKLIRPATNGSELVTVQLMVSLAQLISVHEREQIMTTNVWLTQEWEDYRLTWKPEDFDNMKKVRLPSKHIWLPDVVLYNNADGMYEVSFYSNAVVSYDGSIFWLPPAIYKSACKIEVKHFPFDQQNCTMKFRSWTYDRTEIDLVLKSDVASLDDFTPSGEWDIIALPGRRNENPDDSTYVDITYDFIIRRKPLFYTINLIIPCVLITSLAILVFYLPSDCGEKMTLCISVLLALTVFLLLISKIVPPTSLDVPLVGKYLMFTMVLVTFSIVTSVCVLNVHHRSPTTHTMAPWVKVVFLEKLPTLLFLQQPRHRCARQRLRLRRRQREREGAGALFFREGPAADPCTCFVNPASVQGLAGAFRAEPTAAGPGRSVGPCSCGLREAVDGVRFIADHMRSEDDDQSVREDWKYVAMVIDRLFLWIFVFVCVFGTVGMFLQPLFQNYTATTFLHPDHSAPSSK
assayDetails: cell-based
Format: cell-based
Where a SMILES comes first, the peptide text is derived from it. Bridges are numbered along the chain shown (N, C = ends).
observationType: IC50 (nM)
One number for each entry, in nM.

For CC(C)C[C@@H]1NC(=O)[C@H](C)NC(=O)[C@H](CO)NC(=O)[C@H](Cc2c[nH]cn2)NC(=O)[C@H](CCC(=O)O)NC(=O)[C@H](CC(C)C)NC(=O)[C@H](Cc2c[nH]cn2)NC(=O)[C@@H]2CSSC[C@H](NC(=O)CN)C(=O)N[C@@H](CSSC[C@@H](C(N)=O)NC1=O)C(=O)N[C@@H](CO)C(=O)N[C@@H](CC(N)=O)C(=O)N1CCC[C@H]1C(=O)N[C@@H](C(C)C)C(=O)N2 [MII[N14A]] (H-GCCSNPVCHLEHSALC-NH2; disulfide 2-8, 3-16) , what is its reported IC50?
25.7
